Can you tell me 6-keto Prostaglandin F1α release, Maximum Inhibition (% Inhibition), Average for the items I'm about to list?
# tgt: human KDR (human, UniProt P35968 20-1356)
# Sequence (P35968 20-1356): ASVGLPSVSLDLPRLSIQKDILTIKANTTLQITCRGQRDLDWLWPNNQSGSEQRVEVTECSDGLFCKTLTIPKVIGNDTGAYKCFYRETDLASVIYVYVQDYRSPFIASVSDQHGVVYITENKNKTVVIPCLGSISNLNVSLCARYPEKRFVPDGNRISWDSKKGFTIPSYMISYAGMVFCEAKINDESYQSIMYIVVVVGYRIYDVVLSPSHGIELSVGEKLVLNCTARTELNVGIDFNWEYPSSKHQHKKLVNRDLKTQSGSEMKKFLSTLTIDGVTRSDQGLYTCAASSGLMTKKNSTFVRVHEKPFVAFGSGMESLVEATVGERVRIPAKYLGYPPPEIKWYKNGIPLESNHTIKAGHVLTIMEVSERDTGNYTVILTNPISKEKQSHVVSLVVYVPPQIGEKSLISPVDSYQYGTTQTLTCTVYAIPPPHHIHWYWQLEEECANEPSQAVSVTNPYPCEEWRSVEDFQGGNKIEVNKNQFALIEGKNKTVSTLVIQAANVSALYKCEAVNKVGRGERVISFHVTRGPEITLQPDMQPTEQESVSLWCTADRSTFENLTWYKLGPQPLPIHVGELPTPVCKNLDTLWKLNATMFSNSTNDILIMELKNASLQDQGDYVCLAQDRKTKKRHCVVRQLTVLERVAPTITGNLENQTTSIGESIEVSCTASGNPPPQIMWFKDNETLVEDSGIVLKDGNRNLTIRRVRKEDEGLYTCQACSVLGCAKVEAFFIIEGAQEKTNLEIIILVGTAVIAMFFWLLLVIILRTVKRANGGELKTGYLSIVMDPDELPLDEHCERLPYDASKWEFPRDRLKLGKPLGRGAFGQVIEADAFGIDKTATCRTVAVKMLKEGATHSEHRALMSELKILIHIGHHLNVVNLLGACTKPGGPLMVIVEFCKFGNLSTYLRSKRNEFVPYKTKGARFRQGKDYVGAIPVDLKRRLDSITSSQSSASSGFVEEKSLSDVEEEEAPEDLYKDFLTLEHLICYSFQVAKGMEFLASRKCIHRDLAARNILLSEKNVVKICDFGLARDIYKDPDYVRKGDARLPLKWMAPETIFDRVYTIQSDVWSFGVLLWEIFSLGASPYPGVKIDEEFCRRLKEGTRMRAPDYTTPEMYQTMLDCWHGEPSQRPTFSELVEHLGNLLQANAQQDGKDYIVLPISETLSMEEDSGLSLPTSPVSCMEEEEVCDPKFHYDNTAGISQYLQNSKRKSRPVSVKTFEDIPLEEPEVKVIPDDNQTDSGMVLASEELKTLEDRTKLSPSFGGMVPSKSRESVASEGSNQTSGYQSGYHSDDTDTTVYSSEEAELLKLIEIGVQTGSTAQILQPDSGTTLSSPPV
# method.summary: cell-based or functional assay
Report as a plain number; the unit % is understood.

So what's the measured 6-keto Prostaglandin F1α release, Maximum Inhibition (% Inhibition), Average for this one? 22B8 (antibody, V domains shown, Fully human monoclonal antibody from a XenoMouse hybridoma (IgG2 or IgG4 strain), purified) VH: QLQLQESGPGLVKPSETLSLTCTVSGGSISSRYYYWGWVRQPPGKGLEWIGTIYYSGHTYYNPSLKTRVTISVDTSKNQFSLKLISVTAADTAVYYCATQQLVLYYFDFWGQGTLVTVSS VL: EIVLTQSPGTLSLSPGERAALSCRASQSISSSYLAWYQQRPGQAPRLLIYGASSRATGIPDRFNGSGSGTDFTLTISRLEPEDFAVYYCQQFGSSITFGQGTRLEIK
70

So what's the measured 6-keto Prostaglandin F1α release, Maximum Inhibition (% Inhibition), Average for this one? 27A3 (antibody, V domains shown, Fully human monoclonal antibody from a XenoMouse hybridoma (IgG2 or IgG4 strain), purified) VH: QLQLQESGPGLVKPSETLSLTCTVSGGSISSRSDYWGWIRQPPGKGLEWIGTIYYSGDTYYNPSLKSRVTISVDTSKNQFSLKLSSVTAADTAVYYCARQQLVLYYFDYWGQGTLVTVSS VL: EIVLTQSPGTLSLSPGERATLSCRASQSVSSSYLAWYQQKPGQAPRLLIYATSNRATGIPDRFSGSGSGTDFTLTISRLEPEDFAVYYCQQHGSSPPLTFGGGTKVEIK
49

Please give the measured 6-keto Prostaglandin F1α release, Maximum Inhibition (% Inhibition), Average for this binder: 33C3 (antibody, V domains shown, Fully human monoclonal antibody from a XenoMouse hybridoma (IgG2 or IgG4 strain), purified) VH: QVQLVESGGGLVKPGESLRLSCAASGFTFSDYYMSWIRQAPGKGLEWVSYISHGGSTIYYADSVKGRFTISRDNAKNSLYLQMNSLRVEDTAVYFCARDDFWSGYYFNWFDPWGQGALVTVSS VL: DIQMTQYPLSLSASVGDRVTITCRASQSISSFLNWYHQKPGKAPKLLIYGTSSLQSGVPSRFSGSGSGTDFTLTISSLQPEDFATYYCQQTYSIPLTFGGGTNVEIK
85

Value source: patent US20100260765A1
